# TEST SYSTEM: ~100 representative kinases (Homo sapiens, UniProt Q15418)
# Construct: Recombinant protein kinase domains with a concentration of 2 μM
# Sequence (Q15418 whole entry, the tested form may be a part): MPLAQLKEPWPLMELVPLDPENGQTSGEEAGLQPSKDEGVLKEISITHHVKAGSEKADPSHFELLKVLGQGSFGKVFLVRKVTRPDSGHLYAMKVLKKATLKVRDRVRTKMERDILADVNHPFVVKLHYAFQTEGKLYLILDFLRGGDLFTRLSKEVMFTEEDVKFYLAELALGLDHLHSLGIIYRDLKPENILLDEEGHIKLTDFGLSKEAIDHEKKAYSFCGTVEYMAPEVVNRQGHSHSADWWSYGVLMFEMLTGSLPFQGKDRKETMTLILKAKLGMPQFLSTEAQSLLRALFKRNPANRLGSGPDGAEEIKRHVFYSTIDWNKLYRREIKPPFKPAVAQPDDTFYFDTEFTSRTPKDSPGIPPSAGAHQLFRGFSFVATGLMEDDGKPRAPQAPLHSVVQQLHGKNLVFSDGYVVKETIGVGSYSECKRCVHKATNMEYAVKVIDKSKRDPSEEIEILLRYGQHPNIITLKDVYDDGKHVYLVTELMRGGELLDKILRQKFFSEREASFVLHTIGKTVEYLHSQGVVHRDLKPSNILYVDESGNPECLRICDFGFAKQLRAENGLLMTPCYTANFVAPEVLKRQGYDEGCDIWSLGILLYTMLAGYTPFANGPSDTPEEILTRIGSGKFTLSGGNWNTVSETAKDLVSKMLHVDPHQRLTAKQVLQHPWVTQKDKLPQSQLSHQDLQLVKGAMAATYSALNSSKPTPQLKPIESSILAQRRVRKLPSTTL
# MEASUREMENT PROTOCOL: DSF 100 kinase selectivity screen;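 also: compound tested at 20 µM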
# Format: binding
# REPORTED CONDITIONS: Protein RPS6KA1; DSF; average of three replicates
Binary classification by dTm, with 0.6 K as an inclusive lower bound for Satisfied; all other cases are Not satisfied.

{"INPUT SMILES": "C[C@@H]1CN(c2cc(-c3n[nH]c4ccc(OC5(C)CC5)cc34)ncn2)C[C@H](C)O1", "TEST SYSTEM": "~100 representative kinases (Homo sapiens, UniProt Q15418)", "LABEL CLASS": "Satisfied"}

Continue with the molecule presented below.
Problem: Reported dTm at or above 0.6 K? "Cc1cc(NC(=O)C2(C(=O)Nc3cccc(-c4c[nH]c5ncnc(N6CCOCC6)c45)c3)CC2)ccc1F"
Result: Not satisfied
